This collection of values is drawn from patent US20120107330A1.

Target: T1, human TNFR1 on MRC-5 cells (human, UniProt P19438 30-455)
T1 sequence (looked up): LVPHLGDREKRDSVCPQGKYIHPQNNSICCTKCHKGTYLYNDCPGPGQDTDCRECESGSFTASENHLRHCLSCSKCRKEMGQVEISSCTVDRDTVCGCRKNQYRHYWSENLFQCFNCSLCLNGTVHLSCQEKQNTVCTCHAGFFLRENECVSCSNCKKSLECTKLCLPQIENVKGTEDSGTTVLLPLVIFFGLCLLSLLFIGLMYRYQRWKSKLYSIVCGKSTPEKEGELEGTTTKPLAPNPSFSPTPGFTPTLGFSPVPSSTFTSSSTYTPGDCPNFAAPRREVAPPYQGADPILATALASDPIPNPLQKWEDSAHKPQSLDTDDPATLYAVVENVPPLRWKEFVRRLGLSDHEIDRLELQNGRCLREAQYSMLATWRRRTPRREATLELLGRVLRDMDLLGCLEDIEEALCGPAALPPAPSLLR
Experiment: cell-based or functional assay
In this section we review reported MRC5 (ND50 in nM) values for a set of binders.
A number alone suffices; assume nM.

// solved cases for MRC5 (ND50 in nM) follow
DMS0112 (bispecific antibody, anti-TNFR1 dAb / AlbudAb in-line fusion) EVQLLESGGGLVQPGGSLRLSCAASGFTFVKYSMGWVRQAPGKGLEWVSQISNTADRTYYAHSVKGRFTISRDNSKNTLYLQMNSLRAEDTAVYYCAIYTGRWVPFEYWGQGTLVTVSSASTDIQMTQSPSSLSASVGDRVTITCRASRPIGTMLSWYQQKPGKAPKLLILFGSRLQSGVPSRFSGSGSGTDFTLTISSLQPEDFATYYCAQAGTHPTTFGQGTKVEIKR = 1.3
DMS0111 (bispecific antibody, anti-TNFR1 dAb / AlbudAb in-line fusion) EVQLLESGGGLVQPGGSLRLSCAASGFTFVKYSMGWVRQAPGKGLEWVSQISNTADRTYYAHSVKGRFTISRDNSKNTLYLQMNSLRAEDTAVYYCAIYTGRWVPFEYWGQGTLVTVSSASTDIQMTQSPSSLSASVGDRVTITCRASRPIGTTLSWYQQKPGKAPKLLILWNSRLQSGVPSRFSGSGSGTDFTLTISSLQPEDFATYYCAQAGTHPTTFGQGTKVEIKR = 1.6

Sure, the documented MRC5 (ND50 in nM) for DMS0115 (bispecific antibody, anti-TNFR1 dAb / AlbudAb in-line fusion) EVQLLESGGGLVQPGGSLRLSCAASGFTFVKYSMGWVRQAPGKGLEWVSQISNTADRTYYAHSVKGRFTISRDNSKNTLYLQMNSLRAEDTAVYYCAIYTGRWVPFEYWGQGTLVTVSSASTSGPSDIQMTQSPSSLSASVGDRVTITCRASRPIGTTLSWYQQKPGKAPKLLILWNSRLQSGVPSRFSGSGSGTDFTLTISSLQPEDFATYYCAQAGTHPTTFGQGTKVEIKR is 1.7
